Target: human RIPK1 (1-375) (Homo sapiens, UniProt Q13546)
Construct: human RIPK1 (1-375) gene; GST; made in house; host or cells: Sf-9 insect cells
Sequence (Q13546 1-375): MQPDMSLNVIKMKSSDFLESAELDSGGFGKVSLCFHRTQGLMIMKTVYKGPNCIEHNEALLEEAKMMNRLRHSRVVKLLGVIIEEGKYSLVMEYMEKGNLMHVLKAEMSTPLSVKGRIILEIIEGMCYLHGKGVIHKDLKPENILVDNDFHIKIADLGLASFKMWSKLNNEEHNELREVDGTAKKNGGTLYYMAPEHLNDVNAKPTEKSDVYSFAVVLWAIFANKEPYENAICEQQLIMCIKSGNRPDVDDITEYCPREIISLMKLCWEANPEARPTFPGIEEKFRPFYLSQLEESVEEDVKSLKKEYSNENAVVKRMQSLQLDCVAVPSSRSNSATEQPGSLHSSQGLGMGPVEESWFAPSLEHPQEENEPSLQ
Assay: Human RIPK1 enzyme inhibitory effect (ADP-Glo Kinase Assay)
Assay type: biochemical
Details: read-out: human RIPK1 enzyme inhibitory effect at 10 μM (% inhibition), 10 μM test compound; well without enzyme = 100% inhibition
Description: Experimental Example 1: Human RIPK1 Enzyme Inhibitory Effect Enzyme was prepared by transducing human RIPK1 (1-375) gene to Sf-9 insect cells, and purifying using GST affinity column, and enzyme activity evaluation was performed using the enzyme. […] The RIPK1 enzyme inhibitory activity of the test compound was measured using ADP-Glo™ Kinase Assay (Promega) according the following experiment methods. […] After the reaction, the luminescence intensity was measured by plate reader Envision (PerkinElmer).
propertyName: inhibition at 10 µM (%)

| compound | endpointValue |
| --- | --- |
| CN(C)C(=O)c1ccc2c(c1)N(C)C(=O)[C@@H](N1CCc3c(nn(Cc4ccccc4)c3Cl)C1=O)CO2 [Example 90] | 101 |
| CN1C(=O)[C@@H](N2CCc3c(nn(Cc4ccccc4)c3Cl)C2=O)COc2cc(-c3nccn3C)ccc21 [Example 60] | 100 |
| CN1C(=O)[C@@H](N2CCc3c(nn(Cc4cnccn4)c3Cl)C2=O)COc2ccccc21 [Example 80] | 101 |
| CN1C(=O)[C@@H](N2CCc3cn(Cc4c(F)cccc4F)nc3C2=O)COc2ccccc21 [Example 24] | 101 |
| CN1C(=O)[C@@H](N2CCc3c(nn(Cc4ccccc4)c3Cl)C2=O)COc2cc(C(=O)O)ccc21 [Example 61] | 100 |
| Cc1c2c(nn1Cc1cnccn1)C(=O)N([C@H]1COc3ccccc3N(C)C1=O)CC2 [Example 79] | 100 |
| CN1C(=O)[C@@H](N2CCc3cn(CC4CCS(=O)(=O)C4)nc3C2=O)COc2ccccc21 (some centres unmarked) [Example 163] | 53 |
| O=C1Nc2ccccc2CCC1n1ccc2cn(Cc3ccccc3)nc2c1=O (centres unmarked) [Example 5] | 88 |

---

As shown below, each of these compounds has a reported inhibition at 10 µM value.
Molecular target: human RIPK1 (1-375) (Homo sapiens, UniProt Q13546)
Construct: human RIPK1 (1-375) gene; GST; made in house; host or cells: Sf-9 insect cells
Assay: Human RIPK1 enzyme inhibitory effect (ADP-Glo Kinase Assay)
Assay type: biochemical
Conditions: read-out: human RIPK1 enzyme inhibitory effect at 10 μM (% inhibition), 10 μM test compound; well without enzyme = 100% inhibition
propertyName: inhibition at 10 µM

| smi | propertyName | endpointValue |
| --- | --- | --- |
| COc1c2c(nn1Cc1ccccc1)C(=O)N([C@H]1COc3ccccc3N(C)C1=O)CC2 | inhibition at 10 µM | 98% |
| CN1C(=O)[C@@H](N2CCc3cn(Cc4cnccn4)nc3C2=O)COc2ccccc21 | inhibition at 10 µM | 99% |
| Cc1c2c(nn1Cc1ccccc1)C(=O)N([C@H]1COc3ccc(C#N)cc3N(C)C1=O)CC2 | inhibition at 10 µM | 101% |
| CN1C(=O)[C@@H](N2CCc3cn(Cc4ccccc4)nc3C2=O)COc2ccc(C(N)=O)cc21 | inhibition at 10 µM | 99% |
| CN1C(=O)[C@@H](N2CCc3c(nn(Cc4ccccc4)c3-c3cnn(C)c3)C2=O)COc2ccccc21 | inhibition at 10 µM | 80% |
| COc1ccc(Cn2cc3c(n2)C(=O)N([C@H]2COc4ccccc4N(C)C2=O)CC3)cc1 | inhibition at 10 µM | 99% |
| CN1C(=O)[C@@H](N2CCc3sc(Cc4ccccc4)nc3C2=O)COc2ccccc21 | inhibition at 10 µM | 98% |
| CN1C(=O)[C@@H](N2CCc3c(nn(Cc4ccccc4)c3Cl)C2=O)COc2cc(-c3cn[nH]c3)ccc21 | inhibition at 10 µM | 102% |

---

Target: human RIPK1 (1-375) (Homo sapiens, UniProt Q13546)
Construct: human RIPK1 (1-375) gene; GST; made in house; host or cells: Sf-9 insect cells
Test: Human RIPK1 enzyme inhibitory effect (ADP-Glo Kinase Assay)
Format: biochemical
Conditions: read-out: human RIPK1 enzyme inhibitory effect at 10 μM (% inhibition), 10 μM test compound; well without enzyme = 100% inhibition

| molecule | unitName | inhibition at 10 µM |
| --- | --- | --- |
| CN1C(=O)[C@@H](N2CCc3cn(CCc4ccccc4)nc3C2=O)COc2ccccc21 | % | 91 |
| CN1C(=O)[C@@H](N2CCc3c(nn(Cc4ccccc4)c3OC(F)F)C2=O)COc2cc(Br)ccc21 | % | 98 |
| CNC(=O)c1ccc2c(c1)CCC(N1CCc3c(nn(Cc4ccccc4)c3Cl)C1=O)C(=O)N2C (stereo not drawn) | % | 101 |

---

Target: human RIPK1 (1-375) (Homo sapiens)
Construct: human RIPK1 (1-375) gene; GST; made in house; host or cells: Sf-9 insect cells
Test: Human RIPK1 enzyme inhibitory effect (ADP-Glo Kinase Assay)
Type: biochemical
Conditions: read-out: human RIPK1 enzyme inhibitory effect at 10 μM (% inhibition), 10 μM test compound; well without enzyme = 100% inhibition
Documented inhibition at 10 µM across a set of molecules

| molecule | inhibition at 10 µM, % |
| --- | --- |
| CN1C(=O)[C@@H](N2CCc3c(nn(Cc4cnccn4)c3Cl)C2=O)COc2cc(F)ccc21 | 101 |
| CN1C(=O)[C@@H](N2CCc3c(nn(Cc4ccccc4)c3Cl)C2=O)COc2cc(C(=O)NCCOCCOCCOCCOc3ccc4ccccc4c3)ccc21 | 101 |
| CN1C(=O)[C@@H](N2CCc3cn(Cc4ccc(C#N)cc4F)nc3C2=O)COc2ccccc21 | 99 |
| CN1C(=O)C(N2CCc3c(nn(Cc4ccccc4F)c3Cl)C2=O)CCc2ccncc21 (centres unmarked) | 99 |
| CN1C(=O)C(N2CCc3c(nn(Cc4ccccc4)c3Cl)C2=O)CCc2c1cnn2C (centres unmarked) | 98 |
| CN1C(=O)[C@@H](N2CCc3cn(Cc4ccccc4C#N)nc3C2=O)COc2ccccc21 | 99 |
| CN1C(=O)[C@@H](N2CCc3cn(Cc4ccc(F)cc4)nc3C2=O)COc2ccccc21 | 95 |
| CN1C(=O)[C@@H](N2CCc3c(nn(Cc4ccccc4)c3Cl)C2=O)COc2cc(C(=O)NCCOCCOCCOCCNC(=O)c3ccc4c(c3)OC[C@H](N3CCc5c(nn(Cc6ccccc6)c5Cl)C3=O)C(=O)N4C)ccc21 | 101 |

Values were extracted from patent US10787462B2.
